assay: Solubility in simulated gastric fluid at 1 mg incubated for 24 hrs in shaker and measured after 24 hrs by shake-flask method based UV-VIS-NIR spectrophotometric analysis; type: physicochemical

# smiles code, units label, solubility thermodynamic at 24 h
data = [
    ("c1ccc(-c2ccc(Nc3ccnc(NCCN4CCCCC4)n3)cc2)cc1", "µg/mL", 506),
    ("CC1(C)CC(Nc2nccc(Nc3ccc(-c4ccccc4)cc3)n2)CC(C)(C)N1", "µg/mL", 76),
]

====

experiment: Cytotoxicity against human A549 cells assessed as reduction in cell viability after 48 hrs by MTT assay; format: cell-based
Simple rule here: CC50 at 48 h less than 10 µM is met, otherwise not met.

# smiles code, discrete label
rows = [
    ("Clc1cccc(-c2ccc(Nc3ccnc(NCc4cccnc4)n3)cc2)c1", "not met"),
    ("CC1(C)CC(Nc2nccc(NCc3ccc(F)cc3)n2)CC(C)(C)N1", "not met"),
    ("Clc1ccc(/C=N/Nc2ccnc(NCCN3CCOCC3)n2)c(Cl)c1", "not met"),
    ("CC1(C)CC(Nc2nccc(Nc3ccc(-c4cccc(Cl)c4)cc3)n2)CC(C)(C)N1", "met"),
]
